B1: SLC22A15 (parent)
chain: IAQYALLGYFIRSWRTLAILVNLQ

Variants of: B1
protocol-details: protein stability index of a GFP-peptide fusion (GPS, HEK-293T) (PSI 1-6); higher = more stable;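 note: lentivirally expressed fusions sorted by FACS into six bins by GFP to DsRed ratio, PSI derived from sequencing read proportions per bin multiplied by bin number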
setup-conditions: c terminus: a fixed tail appended
result-type: protein stability index
Output: the number by itself.

"A2F" yielded protein stability index of 1.95

Value of measured protein stability index for the entry "L23W" : 2.35

The measured protein stability index associated with "A18W" reads 2.12

Kindly note the recorded protein stability index for "Q24R" , which is 3.17

Documented protein stability index of "A2G" : 2.41

Consider "N22A" . Its measured protein stability index is 2.95

So for "S13D" , the logged protein stability index turned out to be 3.34

# protein stability index of "L17A" = 3.45

The value of protein stability index measured for the variant "N22M" turned out to be 2.6

Sure, the documented protein stability index for "L23M" is 4.11

"L7W" yielded protein stability index of 2.78

Please fill in: protein stability index reported for "Y4N" = 4.26

Recorded protein stability index (variant "A2I" ): 3.22

Sample "A5S" ; protein stability index observed: 2.48

Record summary for "L23C" : reported protein stability index = 3.16

Lab book: protein stability index of "L6S" noted as 2.22

Data point: "Q3L" ; protein stability index = 3.15

// "L23I" : protein stability index value = 2.5

Just so you know, measured protein stability index for "L6I" came out at 3.23

Notebook: "L6M" , protein stability index read as 3.42

"R12H" yielded protein stability index of 2.5

Item: "I19E" | protein stability index: 4

protein stability index for "L17G" is 3.63

The recorded protein stability index for "L17W" is 2.85

Please fill in: protein stability index reported for "W14R" = 2.52

protein stability index in this record for "L20K" : 2.38

Input "R12N" . Output protein stability index: 2.27

The value of protein stability index measured for the variant "L20T" turned out to be 2.91

The value of protein stability index measured for the variant "L20G" turned out to be 3.27

Entry under test: "I19R" . Its protein stability index was 2.16

What the record says about "Y4Q" : protein stability index is 2.44
